settings: in 2-methoxyethanol, 278.15 K
RECORDED METRIC: solubility (mole fraction)
Please give the numeric answer without any surrounding text.

Answer with reported solubility (mole fraction) of CN1CCN(C2=Nc3cc(Cl)ccc3Nc3ccccc32)CC1 0.0326

###

conditions: in ethanol, 288.15 K
RECORDED METRIC: solubility (mole fraction)
# answer = number (no unit)

Determine its reported solubility (mole fraction): CN1CCN(C2=Nc3cc(Cl)ccc3Nc3ccccc32)CC1 0.00581

###

conditions: in n-pentyl acetate, 313.15 K
RECORDED METRIC: solubility (mole fraction)
Form rule: numeric answer, no unit written next to it.

Report solubility (mole fraction), nothing else, for this molecule: CN1CCN(C2=Nc3cc(Cl)ccc3Nc3ccccc32)CC1 0.0269

###

details: in ethanol, 308.15 K
RECORDED METRIC: solubility (mole fraction)

Provide solubility (mole fraction) value for the following compound: CN1CCN(C2=Nc3cc(Cl)ccc3Nc3ccccc32)CC1 0.00917

###

details: in n-butyl acetate, 288.15 K
RECORDED METRIC: solubility (mole fraction)
Please reply with the value in numeric form only.

Answer with the recorded solubility (mole fraction) of CN1CCN(C2=Nc3cc(Cl)ccc3Nc3ccccc32)CC1 only. 0.0147

###

conditions: in 2-methoxyethanol, 283.15 K
RECORDED METRIC: solubility (mole fraction)
Number only, no unit.

Annotate the compound CN1CCN(C2=Nc3cc(Cl)ccc3Nc3ccccc32)CC1 with its measured solubility (mole fraction). 0.0349

###

settings: in n-pentanol, 298.15 K
RECORDED METRIC: solubility (mole fraction)
Give the figure by itself; no unit, no explanation.

Specify measured solubility (mole fraction) for CN1CCN(C2=Nc3cc(Cl)ccc3Nc3ccccc32)CC1 . 0.0135

###

conditions: in n-propyl acetate, 293.15 K
RECORDED METRIC: solubility (mole fraction)
# output: bare number, no unit

Please give measured solubility (mole fraction) of the following entry: CN1CCN(C2=Nc3cc(Cl)ccc3Nc3ccccc32)CC1 0.0157

###

conditions: in ethyl acetate, 293.15 K
RECORDED METRIC: solubility (mole fraction)

Name the recorded solubility (mole fraction) of the compound listed here: CN1CCN(C2=Nc3cc(Cl)ccc3Nc3ccccc32)CC1 0.0128

###

settings: in 2-propoxyethanol, 308.15 K
RECORDED METRIC: solubility (mole fraction)

Kindly indicate its recorded solubility (mole fraction). Item: CN1CCN(C2=Nc3cc(Cl)ccc3Nc3ccccc32)CC1 0.0581

###

conditions: in 2-propoxyethanol, 318.15 K
RECORDED METRIC: solubility (mole fraction)
Please state the value as a number alone, without comment.

Entry CN1CCN(C2=Nc3cc(Cl)ccc3Nc3ccccc32)CC1 needs its solubility (mole fraction) filled in; supply it. 0.0637

###

settings: in 2-ethoxyethanol, 293.15 K
RECORDED METRIC: solubility (mole fraction)
Number, no unit, nothing else.

Read off the recorded solubility (mole fraction) for CN1CCN(C2=Nc3cc(Cl)ccc3Nc3ccccc32)CC1 0.0442

###

settings: in n-propyl acetate, 303.15 K
RECORDED METRIC: solubility (mole fraction)
Just the number.

Return solubility (mole fraction) for the following compound: CN1CCN(C2=Nc3cc(Cl)ccc3Nc3ccccc32)CC1 0.0194

###

settings: in 2-ethoxyethanol, 288.15 K
RECORDED METRIC: solubility (mole fraction)
Write the number on its own, no unit after it.

Provide measured solubility (mole fraction) value, entry: CN1CCN(C2=Nc3cc(Cl)ccc3Nc3ccccc32)CC1 0.0415

The origin of these recorded values is BigSolDB 2.1.
